- STUDY_SYSTEM: CDK8/CycC (Homo sapiens, UniProt P49336)
- Construct: purchased Invitrogen PV4402
- Sequence (P49336 whole entry): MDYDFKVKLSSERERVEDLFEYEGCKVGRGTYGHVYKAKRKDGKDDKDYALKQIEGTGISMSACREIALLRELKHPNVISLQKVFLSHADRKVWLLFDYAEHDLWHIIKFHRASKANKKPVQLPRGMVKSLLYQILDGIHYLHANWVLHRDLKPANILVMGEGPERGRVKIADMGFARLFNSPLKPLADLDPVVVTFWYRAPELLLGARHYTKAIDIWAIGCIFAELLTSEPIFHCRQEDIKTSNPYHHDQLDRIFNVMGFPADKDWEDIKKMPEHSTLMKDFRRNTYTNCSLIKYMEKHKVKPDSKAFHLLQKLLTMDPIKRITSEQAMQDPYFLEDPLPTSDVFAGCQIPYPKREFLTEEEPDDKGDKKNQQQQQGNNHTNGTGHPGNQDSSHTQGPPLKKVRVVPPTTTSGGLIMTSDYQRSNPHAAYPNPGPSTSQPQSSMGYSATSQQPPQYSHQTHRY
- Sequence (P24863 whole entry partner): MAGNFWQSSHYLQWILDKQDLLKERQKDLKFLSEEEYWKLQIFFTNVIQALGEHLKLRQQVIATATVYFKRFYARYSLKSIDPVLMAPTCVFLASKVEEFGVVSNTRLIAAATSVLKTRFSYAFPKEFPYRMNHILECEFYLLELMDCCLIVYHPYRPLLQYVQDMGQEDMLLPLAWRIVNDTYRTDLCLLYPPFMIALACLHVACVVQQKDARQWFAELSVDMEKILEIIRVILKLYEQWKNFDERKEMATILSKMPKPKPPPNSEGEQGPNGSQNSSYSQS
- TEST: FRET based Lanthascreen binding competition assay for CDK8 inhibitory activity
- MEASUREMENT_CONDITIONS: CDK8 co-expressed with CycC; class symbols; read-out: IC50
Item-by-item account of IC50

Examples with their reported IC50 follow.
MOLECULE	STUDY_SYSTEM	RECORDED_VALUE
CC(C)c1ccc([C@@H]2CCCN2C(=O)c2ccc3[nH]nc(N)c3c2)cc1	CDK8/CycC (Homo sapiens, UniProt P49336)	< 10 nM
Cc1n[nH]c2ncc(C(=O)N3CCCCCC3c3ccc(Cl)cc3)cc12 (centres unmarked)	CDK8/CycC (Homo sapiens, UniProt P49336)	100 to 1000 nM
Cc1n[nH]c2ncc(C(=O)N3CCNC(=O)[C@H]3c3ccc(F)cc3)cc12	CDK8/CycC (Homo sapiens, UniProt P49336)	1000 to 10000 nM
Cc1n[nH]c2ncc(C(=O)N3CCC3c3ccc(Cl)cc3)cc12 (centres unmarked)	CDK8/CycC (Homo sapiens, UniProt P49336)	10 to 100 nM

INPUT: Item under review: Cc1n[nH]c2ncc(C(=O)N3CCC(O)(c4ccccc4)C3)cc12 (stereo in doubt) [compound 199] . Reported IC50?
OUTPUT: 1000 to 10000 nM

INPUT: Recorded IC50 for Cc1ccc([C@H]2CCCN2C(=O)c2cnc3[nH]nc(C)c3c2)cc1 , please?
OUTPUT: 1000 to 10000 nM

INPUT: Form field: reported IC50 of CCCc1n[nH]c2ccc(C(=O)N3CCCC3c3ccc(Br)cc3)cc12 (racemic)
OUTPUT: < 10 nM

* * *

- STUDY_SYSTEM: CDK8/CycC (Homo sapiens)
- Construct: purchased Invitrogen PV4402
- TEST: FRET based Lanthascreen binding competition assay for CDK8 inhibitory activity
- MEASUREMENT_CONDITIONS: CDK8 co-expressed with CycC; class symbols; read-out: IC50
pIC50: −log10 of the molar value.
VALUE_KIND: pIC50

Solved cases (3 shown):
MOLECULE	VALUE_KIND	RECORDED_VALUE
Cc1n[nH]c2ccc(C(=O)N3CC[C@H]3c3ccc(F)cc3)cc12 [compound 204]	pIC50	> 8.00
Nc1n[nH]c2ccc(C(=O)N3CCC[C@@H]3c3ccccc3)cc12 [compound 91]	pIC50	7.00 to 8.00
Cc1n[nH]c2ncc(C(=O)N3CCCC3c3ccc(Cl)c(F)c3)cc12 (stereo not shown) [compound 69]	pIC50	7.00 to 8.00

Continue with the molecule presented below.
INPUT: Recorded pIC50 for Cc1n[nH]c2ncc(C(=O)N3CCCC[C@H]3Cc3ccccc3)cc12 [compound 24] , please?
OUTPUT: 6.00 to 7.00

* * *

- STUDY_SYSTEM: CDK8/CycC (Homo sapiens, UniProt P49336)
- Construct: purchased Invitrogen PV4402
- TEST: FRET based Lanthascreen binding competition assay for CDK8 inhibitory activity
- MEASUREMENT_CONDITIONS: CDK8 co-expressed with CycC; class symbols; read-out: IC50
VALUE_KIND: IC50

COMPOUND	IC50
Cc1n[nH]c2ncc(C(=O)N3CCC[C@@H]3c3ccc(Cl)cc3F)cc12	1 to 10 µM

INPUT: Given the entry Cc1n[nH]c2ncc(C(=O)N3CCC[C@@H]3c3ccc4[nH]ncc4c3)cc12 , what IC50 was observed with CDK8/CycC (Homo sapiens, UniProt P49336)?
OUTPUT: 1 to 10 µM

INPUT: API: value(readout=IC50, system=CDK8/CycC (Homo sapiens, UniProt P49336)) for record Cc1n[nH]c2ncc(C(=O)N3CCCCC3c3ccccc3)cc12 (stereo not drawn)
OUTPUT: 0.01 to 0.1 µM

* * *

- STUDY_SYSTEM: CDK8/CycC (Homo sapiens)
- Construct: purchased Invitrogen PV4402
- TEST: FRET based Lanthascreen binding competition assay for CDK8 inhibitory activity
- MEASUREMENT_CONDITIONS: CDK8 co-expressed with CycC; class symbols; read-out: IC50
VALUE_KIND: IC50

Before answering, review these 3 worked examples.
MOLECULE	RECORDED_VALUE
Cc1n[nH]c2ncc(C(=O)N3C[C@H](C)C[C@H]3c3ccc(C(F)(F)F)cc3)cc12	0.01 to 0.1 µM
Nc1n[nH]c2ccc(C(=O)N3CCC(O)(c4ccc(Cl)cc4)C3)cc12 (stereo not shown)	0.1 to 1 µM
Cc1n[nH]c2ncc(C(=O)N3CCCC3c3ccc(C(F)(F)F)cc3)cc12 (stereo not shown)	< 0.01 µM

INPUT: Given Nc1n[nH]c2ccc(C(=O)N3CCC[C@@H]3c3ccc(C(F)(F)F)cc3)cc12 , state its recorded IC50.
OUTPUT: 0.1 to 1 µM

INPUT: Requested read-out: IC50. Entry: Cc1n[nH]c2ncc(C(=O)N3CCCCC3c3ccc(F)cc3)cc12 (stereo not shown)
OUTPUT: 0.01 to 0.1 µM

INPUT: Any idea what IC50 was measured for CSc1ccccc1[C@@H]1CCCN1C(=O)c1cnc2[nH]nc(C)c2c1 ?
OUTPUT: 0.1 to 1 µM

INPUT: Need IC50 of O=C(c1cnc2[nH]nc(C(F)(F)F)c2c1)N1CCCC[C@H]1c1ccccc1 , thanks.
OUTPUT: 0.1 to 1 µM
